# Subject of test: mouse Tas2r144 (Mus musculus, UniProt Q7TQB8)
# Construct: expressed in transfected cells; host or cells: HEK293T-Gα16gust44
# Sequence (Q7TQB8 whole entry): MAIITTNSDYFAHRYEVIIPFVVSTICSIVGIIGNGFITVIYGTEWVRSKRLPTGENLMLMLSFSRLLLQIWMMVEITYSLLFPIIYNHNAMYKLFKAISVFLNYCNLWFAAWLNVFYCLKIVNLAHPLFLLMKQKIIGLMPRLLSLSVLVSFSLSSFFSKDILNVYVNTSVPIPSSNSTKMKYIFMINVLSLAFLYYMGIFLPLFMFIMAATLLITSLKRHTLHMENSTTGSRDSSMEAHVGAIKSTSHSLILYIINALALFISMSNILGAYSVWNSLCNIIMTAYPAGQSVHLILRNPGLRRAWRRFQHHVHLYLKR
# Test description: Calcium imaging assay (FLIPR), HEK293T-Gα16gust44 cells transfected with mouse Tas2r144
# Assay type: cell-based
# Experimental setup: Time 90.781 s
# Method: This set of bile acids was chosen because of their commercial availability in high purities, their diversity within the class of bile acids and their previous detection and quantitation in human blood. Stock solutions were prepared in DMSO. […] Measured data were negative control corrected by subtracting the signal of the mock-transfected cells and exported to Microsoft Excel using the FLIPR software ScreenWorks 4.2. […]
Attribute: RLU

Compound	Subject of test	RLU / RLU
C[C@H](CCC(=O)O)[C@H]1CC[C@H]2[C@@H]3[C@H](O)C[C@@H]4C[C@H](O)CC[C@]4(C)[C@H]3C[C@H](O)[C@]12C [Cholic Acid, cholic acid]	mouse Tas2r144 (Mus musculus, UniProt Q7TQB8)	548.759
C[C@H](CCC(=O)NCC(=O)O)[C@H]1CC[C@H]2[C@@H]3[C@H](O)C[C@@H]4C[C@H](O)CC[C@]4(C)[C@H]3C[C@H](O)[C@]12C [Glycocholic Acid, glycocholic acid]	mouse Tas2r144 (Mus musculus, UniProt Q7TQB8)	401.169
C[C@H](CCC(=O)NCCS(=O)(=O)O)[C@H]1CC[C@H]2[C@@H]3[C@H](O)C[C@@H]4C[C@H](O)CC[C@]4(C)[C@H]3C[C@H](O)[C@]12C [Taurocholic Acid, taurocholic acid]	mouse Tas2r144 (Mus musculus, UniProt Q7TQB8)	548.478
C[C@H](CCC(=O)NCCS(=O)(=O)O)[C@H]1CC[C@H]2[C@@H]3CC[C@@H]4C[C@H](O)CC[C@]4(C)[C@H]3CC[C@]12C [Taurolithocholic Acid, taurolithocholic acid]	mouse Tas2r144 (Mus musculus, UniProt Q7TQB8)	381.655
